# Tested on: rodent lifetime carcinogenesis bioassay, tumor incidence TD50
# experimental.protocol: carcinogenic potency in animals, long-term in vivo studies, CPDB compilation (AID 1745844)
# assay.conditions: rat; strain F344/DuCrj; males; in drinking water; site: lung; lesion: adenoma; dosed 99 weeks; study length 111 weeks

structure.smiles	TD50
CCN(N=O)C(N)=O	0.518 mg/kg/day

====

# Test system: rodent lifetime carcinogenesis bioassay, tumor incidence TD50
# experimental.protocol: carcinogenic potency in animals, long-term in vivo studies, CPDB compilation (AID 1745844)
# assay.conditions: rat; strain Fischer 344; males; by gavage; site: skin + subcutaneous tissue; lesion: fibroma; dosed 104 weeks; study length 105 weeks

compound	units	TD50
CCCC(Cl)CCCC(Cl)CCC(Cl)CCC(Cl)CCC(Cl)CCCC(Cl)CCC (stereo unspecified)	mg/kg/day	332

====

# Test system: rodent lifetime carcinogenesis bioassay, tumor incidence TD50
# experimental.protocol: carcinogenic potency in animals, long-term in vivo studies, CPDB compilation (AID 1745844)
# assay.conditions: mouse; strain CDF1; males; in feed; site: blood vessels; lesion: hemangioendothelial sarcoma; dosed 57 weeks; study length 57 weeks

structure.smiles	experimental.target	units	TD50
Cc1cccn2c1nc1ccc(N)nc12	rodent lifetime carcinogenesis bioassay, tumor incidence TD50	mg/kg/day	7.81

====

# Test system: rodent lifetime carcinogenesis bioassay, tumor incidence TD50
# experimental.protocol: carcinogenic potency in animals, long-term in vivo studies, CPDB compilation (AID 1745844)
# assay.conditions: rat; strain Charles River CD (Sprague-Dawley); males; inhaled; site: nasal cavity, olfactory epithelium; lesion: carcinoma; dosed 82 weeks; study length 104 weeks

structure.smiles	TD50
ClCC=CCCl	8.88 mg/kg/day

====

# Test system: rodent lifetime carcinogenesis bioassay, tumor incidence TD50
# experimental.protocol: carcinogenic potency in animals, long-term in vivo studies, CPDB compilation (AID 1745844)
# assay.conditions: mouse; strain Swiss albino; males; in drinking water; site: fat; lesion: angiosarcoma; dosed 52 weeks; study length 52 weeks
test.readout: TD50 (mg/kg/day)

structure.smiles	experimental.target	quantitative.readout
CNNC	rodent lifetime carcinogenesis bioassay, tumor incidence TD50	0.215

====

# Test system: rodent lifetime carcinogenesis bioassay, tumor incidence TD50
# experimental.protocol: carcinogenic potency in animals, long-term in vivo studies, CPDB compilation (AID 1745844)
# assay.conditions: hamster; strain Syrian Golden; males; by gavage; site: liver; lesion: hepatocellular adenoma; dosed 35 weeks; study length 65 weeks
test.readout: TD50

structure.smiles	test.readout	result
O=NN1CCOC1	TD50	0.949 mg/kg/day

====

# System: rodent lifetime carcinogenesis bioassay, tumor incidence TD50
# experimental.protocol: carcinogenic potency in animals, long-term in vivo studies, CPDB compilation (AID 1745844)
# assay.conditions: mouse; strain Swiss albino; females; in drinking water; site: lung; lesion: adenoma; dosed 97 weeks; study length 102 weeks
test.readout: TD50 (mg/kg/day)

structure.smiles	test.readout	quantitative.readout
CN(N)C=O	TD50	1.5

====

# Test system: rodent lifetime carcinogenesis bioassay, tumor incidence TD50
# experimental.protocol: carcinogenic potency in animals, long-term in vivo studies, CPDB compilation (AID 1745844)
# assay.conditions: rat; strain Wistar; females; in feed; site: liver; lesion: several types; types named in the paper; dosed 55 weeks; study length 55 weeks
test.readout: TD50 (mg/kg/day)

molecule	experimental.target	quantitative.readout
CC(C)(Oc1ccc(C2CCCc3ccccc32)cc1)C(=O)O (stereo unspecified)	rodent lifetime carcinogenesis bioassay, tumor incidence TD50	163

====

# System: rodent lifetime carcinogenesis bioassay, tumor incidence TD50
# experimental.protocol: carcinogenic potency in animals, long-term in vivo studies, CPDB compilation (AID 1745844)
# assay.conditions: mouse; strain B6C3F1; females; by gavage; site: stomach; lesion: squamous-cell carcinoma; dosed 52 weeks; study length 84 weeks
test.readout: TD50

structure.smiles	test.readout	result
C[C@]12CC[C@@H]3c4ccc(OC(=O)Cc5ccc(N(CCCl)CCCl)cc5)cc4CC[C@H]3[C@@H]1CC[C@@H]2OC(=O)Cc1ccc(N(CCCl)CCCl)cc1	TD50	5.17 mg/kg/day

====

# Tested on: rodent lifetime carcinogenesis bioassay, tumor incidence TD50
# experimental.protocol: carcinogenic potency in animals, long-term in vivo studies, CPDB compilation (AID 1745844)
# assay.conditions: rat; strain Fischer 344; females; in feed; site: liver; lesion: hepatocellular adenoma + hepatoblastoma + hepatocellular carcinoma; dosed 103 weeks; study length 104 weeks
Recorded TD50 for the following molecules
test.readout: TD50 (mg/kg/day)

structure.smiles	quantitative.readout
Nc1c(Br)cc(Br)c2c1C(=O)c1ccccc1C2=O	40.1
COc1ccccc1[N+](=O)[O-]	1010

====

# Tested on: rodent lifetime carcinogenesis bioassay, tumor incidence TD50
# experimental.protocol: carcinogenic potency in animals, long-term in vivo studies, CPDB compilation (AID 1745844)
# assay.conditions: mouse; strain Swiss; males; in drinking water; site: lung; lesion: adenoma; dosed 50 weeks; study length 51 weeks
test.readout: TD50 (mg/kg/day)

structure.smiles	test.readout	quantitative.readout
NC(=O)N(CCO)N=O	TD50	0.382

====

# Test system: rodent lifetime carcinogenesis bioassay, tumor incidence TD50
# experimental.protocol: carcinogenic potency in animals, long-term in vivo studies, CPDB compilation (AID 1745844)
# assay.conditions: hamster; strain Syrian Golden; males; by gavage; site: larynx; lesion: squamous-cell papilloma; dosed 66 weeks; study length 87 weeks

molecule	TD50
CC1CN(N=O)CC(C)O1 (stereo unspecified)	27.3 mg/kg/day

====

# Tested on: rodent lifetime carcinogenesis bioassay, tumor incidence TD50
# experimental.protocol: carcinogenic potency in animals, long-term in vivo studies, CPDB compilation (AID 1745844)
# assay.conditions: rat; strain Wistar; females; in feed; site: kidney; lesion: several types; types named in the paper; dosed 126 weeks; study length 126 weeks
test.readout: TD50

structure.smiles	result
CC(=O)[O-].CC(=O)[O-].[OH-].[OH-].[OH-].[OH-].[Pb+2].[Pb+2].[Pb+2]	107 mg/kg/day

====

# Test system: rodent lifetime carcinogenesis bioassay, tumor incidence TD50
# experimental.protocol: carcinogenic potency in animals, long-term in vivo studies, CPDB compilation (AID 1745844)
# assay.conditions: rat; strain Fischer 344; males; by gavage; site: liver; lesion: cholangiocarcinoma; dosed 25 weeks; study length 118 weeks

structure.smiles	experimental.target	TD50
Brc1cc(Br)c(-c2cc(Br)c(Br)cc2Br)cc1Br	rodent lifetime carcinogenesis bioassay, tumor incidence TD50	14.4 mg/kg/day

====

# Tested on: rodent lifetime carcinogenesis bioassay, tumor incidence TD50
# experimental.protocol: carcinogenic potency in animals, long-term in vivo studies, CPDB compilation (AID 1745844)
# assay.conditions: mouse; strain B6C3F1; females; in feed; site: uterus; lesion: endometrial stromal polyp + endometrial stromal sarcoma; dosed 104 weeks; study length 104 weeks

structure.smiles	experimental.target	TD50
Nc1c(Br)cc(Br)c2c1C(=O)c1ccccc1C2=O	rodent lifetime carcinogenesis bioassay, tumor incidence TD50	6820 mg/kg/day

====

# Test system: rodent lifetime carcinogenesis bioassay, tumor incidence TD50
# experimental.protocol: carcinogenic potency in animals, long-term in vivo studies, CPDB compilation (AID 1745844)
# assay.conditions: rat; strain Fischer 344; males; in feed; site: urinary bladder; lesion: transitional-cell carcinoma + transitional-cell papilloma; dosed 27 weeks; study length 104 weeks

structure.smiles	TD50
COc1ccccc1[N+](=O)[O-]	7.48 mg/kg/day

====

# Test system: rodent lifetime carcinogenesis bioassay, tumor incidence TD50
# experimental.protocol: carcinogenic potency in animals, long-term in vivo studies, CPDB compilation (AID 1745844)
# assay.conditions: mouse; strain Charles River CD1; females; by gavage; site: lung; lesion: alveolar-cell adenoma; dosed 92 weeks; study length 92 weeks

structure.smiles	experimental.target	TD50
CC[C@H](C)C(=O)O[C@H]1C[C@@H](C)C=C2C=C[C@H](C)[C@H](CC[C@@H]3C[C@@H](O)CC(=O)O3)[C@H]21	rodent lifetime carcinogenesis bioassay, tumor incidence TD50	1220 mg/kg/day

====

# Tested on: rodent lifetime carcinogenesis bioassay, tumor incidence TD50
# experimental.protocol: carcinogenic potency in animals, long-term in vivo studies, CPDB compilation (AID 1745844)
# assay.conditions: mouse; strain B6C3F1; males; by gavage; site: liver; lesion: hepatocellular adenoma + hepatocellular carcinoma; dosed 105 weeks; study length 106 weeks
test.readout: TD50

structure.smiles	result
ClC(Br)Br	20.7 mg/kg/day

====

# System: rodent lifetime carcinogenesis bioassay, tumor incidence TD50
# experimental.protocol: carcinogenic potency in animals, long-term in vivo studies, CPDB compilation (AID 1745844)
# assay.conditions: rat; strain Charles River CD (Sprague-Dawley); females; inhaled; site: nasal cavity; lesion: malignant tumor; dosed 104 weeks; study length 104 weeks
test.readout: TD50 (mg/kg/day)

structure.smiles	experimental.target	test.readout	quantitative.readout
ClCC=CCCl	rodent lifetime carcinogenesis bioassay, tumor incidence TD50	TD50	8.32

====

# Tested on: rodent lifetime carcinogenesis bioassay, tumor incidence TD50
# experimental.protocol: carcinogenic potency in animals, long-term in vivo studies, CPDB compilation (AID 1745844)
# assay.conditions: mouse; strain Charles River CD1; males; in feed; site: liver; lesion: hepatocellular carcinoma; dosed 86 weeks; study length 86 weeks
Active and inactive are the calls of the source. How the calls were made is not given here.
test.readout: TD50

structure.smiles	experimental.target	result
Cc1ccc2c(-c3ccccc3)nc(=O)n(C(C)C)c2c1	rodent lifetime carcinogenesis bioassay, tumor incidence TD50	4350 mg/kg/day (inactive)
